- target_desc: T1, interleukin-23 receptor (IL-23R), Q5VWK5
- T1 chain: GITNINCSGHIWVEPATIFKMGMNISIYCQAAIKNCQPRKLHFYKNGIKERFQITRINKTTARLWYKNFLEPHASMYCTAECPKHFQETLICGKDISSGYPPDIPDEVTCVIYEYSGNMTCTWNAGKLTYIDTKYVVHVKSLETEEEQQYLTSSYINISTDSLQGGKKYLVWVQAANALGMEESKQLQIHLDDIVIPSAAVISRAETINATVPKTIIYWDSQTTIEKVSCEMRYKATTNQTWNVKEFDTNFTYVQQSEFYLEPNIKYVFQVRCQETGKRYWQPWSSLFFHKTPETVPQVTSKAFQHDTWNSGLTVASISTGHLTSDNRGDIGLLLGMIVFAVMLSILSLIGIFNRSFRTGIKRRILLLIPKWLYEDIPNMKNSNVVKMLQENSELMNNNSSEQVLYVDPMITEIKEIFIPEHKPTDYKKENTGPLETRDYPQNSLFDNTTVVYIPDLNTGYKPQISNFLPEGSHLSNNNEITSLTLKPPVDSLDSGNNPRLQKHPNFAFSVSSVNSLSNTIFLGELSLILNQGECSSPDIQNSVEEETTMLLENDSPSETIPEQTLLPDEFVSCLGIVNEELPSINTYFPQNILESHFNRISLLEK
- protocol_details: cell-based or functional assay
Starred links: 1 amine or outer side, 2 acyl side, 3 side chain; linkers in the order of their positions; H or OH if unused. Positions of bridges follow the written chain, without caps; N, C: chain ends. Non-standard residues stand in square brackets, D forms with d. No end group written: not given here. X1 = 3‑(7-(3-acetamidophenyl)-1H-indol-3-yl)‑2‑aminopropanoic acid, CC(=O)Nc1cccc(-c2cccc3c(CC(N[*:1])C(=O)[*:2])c[nH]c23)c1; AEF(G) = 2-amino-3-(4-(2-guanidinoethoxy)phenyl)propanoic acid, N=C(N)NCCOc1ccc(C[C@H](N[*:1])C(=O)[*:2])cc1; X6 = 2‑amino‑3‑(4-carbamoyl-1H-imidazol-1-yl)propanoic acid, NC(=O)c1cn(CC(N[*:1])C(=O)[*:2])cn1; Trp(7-(3-AcNH-Ph)) = CC(=O)Nc1cccc(-c2cccc3c(C[C@H](N)C(=O)O)c[nH]c23)c1; 2Nal(6-OH) = N[C@@H](Cc1ccc2cc(O)ccc2c1)C(=O)O; Trp(7-Me) = Cc1cccc2c(C[C@H](N)C(=O)O)c[nH]c12; dLys(Me3) = C[N+](C)(C)CCCC[C@@H](N)C(=O)O; AEF = NCCOc1ccc(C[C@H](N)C(=O)O)cc1; 3Pal = N[C@@H](Cc1cccnc1)C(=O)O; Lipidated = not defined here; Pen = CC(C)(S)[C@H](N)C(=O)O; Thp = NC1(C(=O)O)CCOCC1; Sar = CNCC(=O)O
Kindly supply the reported PBMC pSTAT3 IC50 values for the records listed here.

[[record]]
binder = "R[Pen]NT[X1]K[Pen][2‑amino‑3‑(4-(2-aminoethoxy)phenyl)propanoic acid][2‑amino‑3‑(6-hydroxynaphthalen-2-yl)propanoic acid][Thp]EN[3Pal][Sar] (disulfide 2-7 (inferred); ends not checked; also: K6: lipidated lysine, lipid not given here) [SEQ ID NO: 154]"
reported_metric = "PBMC pSTAT3 IC50"
result = "< 1 nM"

[[record]]
binder = "R[Pen]NT[Trp(7-Me)]K(Ac)[Pen][N,N,N‑trimethylethanaminium][2‑amino‑3‑(6-hydroxynaphthalen-2-yl)propanoic acid][Thp]EN[3Pal][Sar] (disulfide 2-7 (inferred); not fully specified; ends not checked) [SEQ ID NO: 436]"
reported_metric = "PBMC pSTAT3 IC50"
result = "< 1 nM"

[[record]]
binder = "[(R)‑3‑carboxy‑2‑(4-(((R)-5-carboxy-5-hydrazineylpentyl)amino)-4-oxobutanamido)‑N,N,N‑trimethylpropan‑1‑aminium][Pen]NT[Trp(7-Me)]K(Ac)[Pen][AEF][2Nal(6-OH)][Thp]EN[3Pal][Sar] (not fully specified (bridges); ends and bridges not checked) [SEQ ID NO: 340]"
reported_metric = "PBMC pSTAT3 IC50"
result = "< 10 pM"

[[record]]
binder = "K[Pen]ET[Trp(7-Me)]K(Ac)[Pen][AEF][2Nal(6-OH)][Thp]K(Ac)N[3Pal][Sar] (not fully specified (bridges); ends and bridges not checked; also: lipidated Lys1, lipid not given here) [SEQ ID NO: 423]"
reported_metric = "PBMC pSTAT3 IC50"
result = "< 1 nM"

[[record]]
binder = "R[Pen]KT[X1]K(Ac)[Pen][2‑amino‑3‑(4-(2-aminoethoxy)phenyl)propanoic acid][2‑amino‑3‑(6-hydroxynaphthalen-2-yl)propanoic acid][Thp]EN[3Pal][Sar] (disulfide 2-7 (inferred); ends not checked; also: Lys3: lipidated lysine, lipid not given here) [SEQ ID NO: 150]"
reported_metric = "PBMC pSTAT3 IC50"
result = "< 1 nM"

[[record]]
binder = "R[Pen]NT[Trp(7-Me)]K(Ac)[Pen][2‑amino‑3‑(4-(2-aminoethoxy)phenyl)propanoic acid][3‑(6-(1H-pyrazol-4-yl)naphthalen-2-yl)‑2‑aminopropanoic acid][Thp]EN[Thp] (not fully specified (bridges); ends and bridges not checked) [SEQ ID NO: 433]"
reported_metric = "PBMC pSTAT3 IC50"
result = "> 1 nM"

[[record]]
binder = "R[Pen]NT[Trp(7-Me)]K(Ac)[Pen][AEF][2Nal(6-OH)][Thp]EN[X6][Sar] (not fully specified (bridges); ends and bridges not checked) [SEQ ID NO: 419]"
reported_metric = "PBMC pSTAT3 IC50"
result = "< 0.1 nM"

[[record]]
binder = "[dLys(Me3)][Pen]NT[Trp(7-(3-AcNH-Ph))]K(Ac)[Pen][AEF(G)][2Nal(6-OH)][Thp]EN[3Pal][Sar] (ends and bridges not checked) [SEQ ID NO: 33]"
reported_metric = "PBMC pSTAT3 IC50"
result = "< 10 pM"


Need PBMC pSTAT3 IC50 for each of these binders.
1. R[Pen]NT[Trp(7-(3-AcNH-Ph))]K(Ac)[Pen]Y[2Nal(6-OH)][Thp]EN[3Pal][Sar] (disulfide 2-7 (inferred); ends not checked) [SEQ ID NO: 65]
2. [Pen]ET[Trp(7-Me)]K(Ac)[Pen][2‑amino‑3‑(4-(2-aminoethoxy)phenyl)propanoic acid][2‑amino‑3‑(6-hydroxynaphthalen-2-yl)propanoic acid][Thp]K(Lipidated)N[3Pal][Sar] (disulfide 1-6 (inferred); ends not checked; also: K10: lipidated lysine, lipid not given here) [SEQ ID NO: 193]
3. [Pen]NT[Trp(7-Me)]K(Ac)[Pen][2‑amino‑3‑(4-(2-aminoethoxy)phenyl)propanoic acid][2‑amino‑3‑(6-hydroxynaphthalen-2-yl)propanoic acid][Thp]K(Lipidated)N[3Pal][Sar] (disulfide 1-6 (inferred); ends not checked; also: K10 lipidated lysine, lipid not given here) [SEQ ID NO: 185]

["< 1 nM", "< 1 nM", "< 1 nM"]
